Source listed as patent US9969749B2.

# Tested Target: IRAK4 (Homo sapiens (Human), UniProt Q9NWZ3)
# Sequence (Q9NWZ3 whole entry): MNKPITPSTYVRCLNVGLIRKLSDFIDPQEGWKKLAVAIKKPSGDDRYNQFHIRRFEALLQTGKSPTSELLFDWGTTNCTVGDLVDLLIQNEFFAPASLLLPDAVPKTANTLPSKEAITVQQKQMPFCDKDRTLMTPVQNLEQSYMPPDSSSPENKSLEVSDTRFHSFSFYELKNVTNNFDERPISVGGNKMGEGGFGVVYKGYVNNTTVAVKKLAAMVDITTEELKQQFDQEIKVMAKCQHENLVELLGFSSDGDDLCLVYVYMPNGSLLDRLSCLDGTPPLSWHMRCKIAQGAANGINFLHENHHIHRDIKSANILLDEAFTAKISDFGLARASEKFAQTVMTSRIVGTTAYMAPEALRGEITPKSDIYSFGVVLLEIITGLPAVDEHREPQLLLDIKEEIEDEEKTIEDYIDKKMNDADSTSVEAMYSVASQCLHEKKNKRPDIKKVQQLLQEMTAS
The entries below are paired with their reported IC50.
Assay Readout: IC50

* COc1cc(-c2ccc3ncnc(N[C@H]4CC[C@H](N5CCOCC5)CC4)c3c2)cnc1F | 20 nM
* CNc1cncc(-c2ccc3ncnc(N[C@H]4CC[C@H](N5CCC[C@H](CN6CCOCC6)C5)CC4)c3c2)c1 | 2 nM
* CN(C)C1CCC(Nc2ncnc3ccc(-c4cn[nH]c4)cc23)CC1 (stereo not shown) | 1 nM
* CN(C)[C@H]1CC[C@H](Nc2ncnc3ccc(-c4cnn(CCN5CCOCC5)c4)cc23)CC1 | 1320 nM
* CCOC(C)n1cc(-c2ccc3ncnc(N[C@H]4CC[C@H](N(C)C)CC4)c3c2)cn1 (stereo partly shown) | 1360 nM
* Oc1cc(F)cc(-c2ccc3ncnc(N[C@H]4CC[C@H](N5CCOCC5)CC4)c3c2)c1 | 5 nM
* CNc1cncc(-c2ccc3ncnc(N[C@H]4CC[C@H](N5CCC(CN6CCOCC6)CC5)CC4)c3c2)c1 | 8 nM
* COC(=O)c1cncc(-c2ccc3ncnc(N[C@H]4CC[C@H](N(C)C)CC4)c3c2)c1 | 45 nM
* C[C@@H]1CN([C@H]2CC[C@H](Nc3ncnc4ccc(-c5cnc(F)c(N)c5)cc34)CC2)CCO1 | 1 nM
* CN(C)[C@H]1CC[C@H](Nc2ncnc3ccc(-c4cnc(NCCO)nc4)cc23)CC1 | 25 nM
* CCOC(=O)c1cn(C)nc1-c1ccc2ncnc(N[C@H]3CC[C@H](N4CCOCC4)CC3)c2c1 | 6030 nM
* Cc1nc(-c2ccc3ncnc(N[C@H]4CC[C@H](N5CCOCC5)CC4)c3c2)c[nH]1 | 88 nM
* CS(=O)(=O)N1CCN([C@H]2CC[C@H](Nc3ncnc4ccc(-c5cnc(F)c(O)c5)cc34)CC2)CC1 | 1 nM
* CN(C)[C@H]1CC[C@H](Nc2ncnc3ccc(-c4ccncc4F)cc23)CC1 | 11 nM
* N#Cc1cscc1-c1ccc2ncnc(N[C@H]3CC[C@H](N4CCOCC4)CC3)c2c1 | 52 nM
* Oc1cccc(-c2ccc3ncnc(N[C@H]4CC[C@H](N5CCOCC5)CC4)c3c2)c1 | 6 nM

###

# Tested Target: IRAK4 (Homo sapiens (Human), UniProt Q9NWZ3)
Assay Readout: IC50 (nM)

* Cc1c(-c2cncc(O)c2)ccc2ncnc(N[C@H]3CC[C@H](N4CCOCC4)CC3)c12 | 38
* FC(F)c1cncc(-c2ccc3ncnc(N[C@H]4CC[C@H](N5CCOCC5)CC4)c3c2)c1 | 37
* CN(C)[C@H]1CC[C@H](Nc2ncnc3ccc(-c4cccc(C#N)c4)cc23)CC1 | 32
* CN(C)[C@H]1CC[C@H](Nc2ncnc3ccc(-c4cnn(Cc5ccccn5)c4)cc23)CC1 | 372
* Nc1cc(-c2ccc3ncnc(N[C@H]4CC[C@H](N5CCO[C@@H](CF)C5)CC4)c3c2)cnc1F | 4
* CN(C)[C@H]1CC[C@H](Nc2ncnc3ccc(-c4cncc(S(C)(=O)=O)c4)cc23)CC1 | 2350
* COc1ccncc1-c1ccc2ncnc(N[C@H]3CC[C@H](N(C)C)CC3)c2c1 | 394
* Nc1cc(-c2ccc3ncnc(N[C@H]4CC[C@H](N5CCOCC5)CC4)c3c2)cnc1F | 1
* CN(C)[C@H]1CC[C@H](Nc2ncnc3ccc(-c4cnc5[nH]ccc5c4)cc23)CC1 | 46
* Cc1nc(-c2ccc3ncnc(N[C@H]4CC[C@H](N5CCOCC5)CC4)c3c2)cs1 | 92
* Cc1c[nH]c(-c2ccc3ncnc(N[C@H]4CC[C@H](N5CCOCC5)CC4)c3c2)n1 | 492
* Fc1cc(F)cc(-c2ccc3ncnc(N[C@H]4CC[C@H](N5CCOCC5)CC4)c3c2)c1 | 25
* Oc1cc(-c2ccc3ncnc(N[C@H]4CC[C@H](N5CCOCC5)CC4)c3c2)cc(F)c1F | 5
* CN(C)[C@H]1CC[C@H](Nc2ncnc3ccc(-c4cncc(O)c4)cc23)CC1 | 1
* CC(C)c1nc(-c2ccc3ncnc(N[C@H]4CC[C@H](N5CCOCC5)CC4)c3c2)cs1 | 390
* CNc1cc(-c2ccc3ncnc(N[C@H]4CC[C@H](N5CCN(C(=O)C6CC6)CC5)CC4)c3c2)cnc1F | 1
